Target: human RET on cells (MCF7/SRE-Luc; HEK293/hGFRα3/hRET/SRE-Luc; HEK293/hGFRα1/hRET/SRE-Luc) (human), P07949
Test: cell-based or functional assay
measuredParameter: MCF7/SRE-Luc % Activation (%)

| binder | observedResult |
| --- | --- |
| H4H8076P (antibody, human IgG4, V domains shown) VH: QVQLQQSGPGLVKPSQTLSLTCAISGDSVSSNSVAWNWIRQSPSRGLEWLGRTYYRSNWYNTYAVSVKSRITIDPDTSKNQFSLQLNSVTPEDTALYYCARGHRYSGSYFDYWGQGTLVTVSS VL: DIQMTQSPSSLSASVGDRVTITCRASQNINSYFNWYQQKPGKAPKLLIYAASSLQSGVPSRFSGGGSGTDFTLTISSLQPEDFATYYCQQTYTIPWTFGQGTKVEIK | 3 |
| H2M7086N (antibody, mouse IgG2, V domains shown) VH: QVQLVESGGGVVQPGRSLRLSCVVSGFTFSNYGMHWVRQGPGRGLEWLALIWYDGSDKYYAESVRGRFTISRDNSKNTVYLQMNSLRAEDTAMYYCTRDRIFDYWGQGTLVTVSS VL: AIQMTQSPSSLSASVGDRVTITCRASQDIRNDLGWYQHNPGKAPNLLIYAASTLQIGVPSRFRGSGSGTDFTLTISSLQPEDFATYYCLQDFDYPLSFGGGTKVEIR | 0 |
| H4H8056P (antibody, human IgG4, V domains shown) VH: QVQLVESGGGVVQPGRSLRLSCAASGFTFRNYGMHWVRQAPGKGLEWVAVKRYDGSDEYFVDSVKGRFTISRDNSKNTLFLQMNSLRVDDTAVYYCARETPITGTTLDYWGQGTLVTVSS VL: DIQMTQSPSSLSASVGDRVTITCRTSQSITNYLNWYQQKPGKAPKLLIYAASRSQSGVPSRFSGSGSGTDFTLTISSLQPEDFATYYCQQSYSTPLTFGGGTKVEIK | 0 |
| H4H8046P (antibody, human IgG4, V domains shown) VH: QVQLVQSRDEVKKPGASVKVSCKASGYTFTTYGISWVRQAPGQGLEWMGWINTYNGDTNYAQKVQDRVIMTTDTSTSTAYMELRSLRSDDTAVYFCAGARPLGGRRAFDIWGQGTMVTVSS VL: DIQMTQSPSSLSASVGDRVTITCRASQGISHYLAWYQQKPGKVPKLLIYAASTLQSGVPSRFSGSGSGTDFTLTISSLQPEDVATYYCQKYNSVPWTFGQGTKVEIK | 5 |
| H4H8080P (antibody, human IgG4, V domains shown) VH: EVQLVESGGGLVQSGGSLRLSCVASGFTFSTYAMTWVRQAPGRGLEWVSAISGSGASTYYADSLKGRFTVSRDNSKNTLYLQMNSLRAEDTAVYYCSKDHRNYDSDYDMDVWGQGTTVTVSS VL: DIQMTQSPSSLSASVGDRVTITCRASQGIRNYLGWYQQKPGKAPKRLIYTASSLQSGVPSRFRGSGSGTEFTLTISSLQPEDFATYYCLQHNSYPYTFGQGTKLEIK | 0 |
